tested on: SNB-78 CNS; assay: NCI tumour cell line growth inhibition, 48 h
Recorded endpoint: TGI

• Cc1ccc(S(=O)(=O)OC[C@@H]2CO2)cc1 = > 100 µM
• CN(C)N=Nc1ccc(C(N)=O)cc1 = > 100 µM
• CCCCCCCCCCCCCC(=O)OC(/C=C/C(C)C)C(O)C(O)C(OC)C(=O)NC1CCCCN(C)C1=O (stereo not drawn) = 14.8 µM

---

test system: SW-620 colon; assay: NCI tumour cell line growth inhibition, 48 h
Reported TGI values are given for each entry in this list.
Recorded endpoint: TGI

* Nc1nc(Cl)cc(NCC2(CO)CC(=O)C2)n1 | > 100 µM
* COCO[C@@H]1C[C@H]2C(=O)Nc3ccccc3C(=O)N2C1 | > 100 µM
* CCOC(=O)CCC1(C(=O)OCC)CCCCC1=O (stereo unspecified) | > 100 µM
* Cc1cn2c(/C=N/N=C(N)N)c(-c3cccc([N+](=O)[O-])c3)nc2s1 | 2.7 µM
* C[C@@H](NC(=O)[C@@H]1C[C@]1(C)COC(=O)c1cc([N+](=O)[O-])cc([N+](=O)[O-])c1)c1cccc2ccccc12 | > 100 µM
* COc1ccccc1N1C(=O)C2c3[nH]c4ccccc4c3C3CCC(C(C)(C)C)CC3C2C1=O (stereo unspecified) | > 100 µM
* NS(=O)(=O)OC[C@@H]1C[C@@H](n2ccc3c(NC4CCc5ccccc54)ncnc32)C[C@@H]1O (stereo partly specified) | > 77.6 µM
* COC1/C=C/OC2(C)Oc3c(C)c(O)c4c(O)c(c(/C=N/Nc5ccc([N+](=O)[O-])cc5[N+](=O)[O-])c(O)c4c3C2=O)NC(=O)C(C)=C/C=C/C(C)C(O)C(C)C(O)C(C)C(OC(C)=O)C1C (stereo unspecified) | 2.96 µM
* C=CCOc1ccc2c(C)cc(=O)oc2c1C | > 100 µM
* Cc1cc(N(CCC#N)CCC#N)ccc1N=Nc1ccc(S(N)(=O)=O)cc1 | > 100 µM
* O=C(CCc1nc(=S)[nH][nH]1)Nc1ccc(Cl)c(Cl)c1 | > 100 µM

---

List of TGI values.
test system: HOP-62 NSCLC; assay: NCI tumour cell line growth inhibition, 48 h
Recorded endpoint: TGI

* COC(=O)/C=C1\S/C(=N\NC(=O)c2cc3ccc2/C=C\c2ccc(cc2)/C=C\3)N(c2ccccc2)C1=O | 6.97 µM
* c1ccc(N=c2sc3ccccc3nc2Nc2ccccc2)cc1 | > 100 µM
* CN1C(=O)C2CCC(=O)N2c2cccnc21 (stereo not given) | > 100 µM
* O=[N+]([O-])c1cccc(-c2csc(NNC3=NC/C(=C/c4ccc5c(c4)OCO5)S3)n2)c1 | > 100 µM
* C=CCOc1ccc2c(C)cc(=O)oc2c1C | > 100 µM

---

test system: K-562 leukemia; assay: NCI tumour cell line growth inhibition, 48 h
*1 amine or outer side, *2 acyl side, *3 side chain or, on linkers, in order; H or OH if unused. Where a SMILES comes first, the peptide text is derived from it. Bridges are numbered along the chain shown (N, C = ends). [ ]: non-standard residue; d: D form. The star is where a group is joined. Phe(3,5-F2) = N[C@@H](Cc1cc(F)cc(F)c1)C(=O)O; Pro(4R-Me) = C[C@H]1CN[C@H](C(=O)O)C1; aThr = C[C@H](O)[C@H](N)C(=O)O; Pip = O=C(O)[C@@H]1CCCCN1; X10 = Fc1cc(C2CC2)ccc1N*; CO = O=C([*:1])[*:2]
Recorded endpoint: TGI

* O=C(Nc1ccc(F)cc1)Nc1ccc(Cl)c([N+](=O)[O-])c1 | > 100 µM
* NC1=NCCC1(c1ccccc1)c1ccccn1 (configuration not stated) | > 100 µM
* COc1cc2c(cc1OCCCCN1CCN(CC(=O)Nc3ccc(Cl)cc3C(=O)c3ccccc3Cl)CC1)N=CC1CCCN1C2=O (configuration not stated) | 2.82 µM
* C1=C2/CC[C@H](Sc3ccccc3)C2C2(CCCCC/1)OCCO2 (some centres not stated) | > 100 µM
* O=C1CSC(c2ccc(Cl)cc2)N1c1ccc(Oc2ccc(Cl)cc2)c(Cl)c1 (configuration not stated) | > 100 µM
* Cc1ccc(C(=O)O)cc1S(=O)(=O)Nn1cnc2ccc(S(=O)(=O)Nc3ccccc3C(=O)O)cc2c1=O | > 100 µM
* C[C@@H]1C[C@H]2C(=O)O[C@@H](C)[C@H](NC(=O)[C@H](Cc3cc(F)cc(F)c3)NC(=O)Nc3ccc(C4CC4)cc3F)C(=O)N3CCC[C@H]3C(=O)N3CCCC[C@H]3C(=O)N[C@@H](C)C(=O)N2C1 ({X10-CO}-[Phe(3,5-F2)][aThr]P[Pip]A[Pro(4R-Me)]; ester 2-C) | > 52.3 µM
* COc1cc(C(=O)N(C(=S)OCc2ccccn2)c2ccccc2)cc(OC)c1OC | > 100 µM
* C=C1C(=O)O[C@@H]2C(=O)[C@@H](C)CCC/C(C)=C/CC[C@@]3(C)O[C@@H]3C[C@@H]12 | 34.8 µM
* COC([CH2][Hg][n]1cnc2c1c(=O)n(C)c(=O)n2C)CN1C(=O)c2ccccc2S1(=O)=O (configuration not stated) | > 100 µM
* Nn1c(-c2ccccc2)nn(C(=O)c2ccccc2)c1=O | > 100 µM
* COC(=O)c1c(C)cccc1C1CN=NC12Cc1ccc(C)cc1C2=O (configuration not stated) | > 100 µM
* Cc1ccc(-c2n[nH]c(=O)n2N2C(=O)c3ccccc3C2=O)cc1 | > 100 µM
* Cc1c(C(=O)C/C(=N/NC(=O)c2ccccc2O)C(=O)Nc2ccccc2C(C)C)[n+](=O)c2ccccc2n1[O-] | > 100 µM
* CCn1c(C)nn2c(=O)c3ccccc3nc2c1=O | > 100 µM
* C[C@@H](NC(=O)[C@@H]1C[C@]1(C)COC(=O)c1cc([N+](=O)[O-])cc([N+](=O)[O-])c1)c1cccc2ccccc12 | > 100 µM
* Cc1cc(-c2nc(C(=O)Nc3cc4oc(N5CCOCC5)nc4nc3N3CC[C@@H](O)C3)co2)ccn1 | > 100 µM
